Data credit: ChEMBL document CHEMBL1134068

Target: Prostaglandin G/H synthase 1 (Homo sapiens, UniProt P23219)
Sequence (P23219 whole entry): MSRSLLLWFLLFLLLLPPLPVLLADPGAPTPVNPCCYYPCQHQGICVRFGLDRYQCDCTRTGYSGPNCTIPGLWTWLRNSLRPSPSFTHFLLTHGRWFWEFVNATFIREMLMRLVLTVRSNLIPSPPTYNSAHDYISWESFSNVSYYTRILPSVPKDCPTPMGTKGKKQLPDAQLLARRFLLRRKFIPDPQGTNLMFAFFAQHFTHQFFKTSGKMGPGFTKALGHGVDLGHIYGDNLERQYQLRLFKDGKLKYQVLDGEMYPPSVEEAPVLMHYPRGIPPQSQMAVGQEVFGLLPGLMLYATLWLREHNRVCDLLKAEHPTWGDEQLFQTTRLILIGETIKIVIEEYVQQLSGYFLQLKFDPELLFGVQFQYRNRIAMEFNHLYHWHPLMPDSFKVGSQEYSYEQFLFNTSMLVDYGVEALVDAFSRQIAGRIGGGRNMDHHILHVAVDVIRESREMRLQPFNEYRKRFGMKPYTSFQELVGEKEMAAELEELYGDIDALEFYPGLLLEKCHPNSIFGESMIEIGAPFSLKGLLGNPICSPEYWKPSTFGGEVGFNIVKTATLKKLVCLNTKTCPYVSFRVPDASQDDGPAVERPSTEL
Test: Percent inhibition at 10 uM concentration against human recombinant Prostaglandin G/H synthase 1 cloned and expressed in baculovirus (Sf9)
experimental-endpoint: inhibition (%)

| compound-smiles | result-number |
| --- | --- |
| COc1ccc2c(c1)c(Cc1nc(-c3ccc([N+](=O)[O-])cc3)cs1)c(C)n2C(=O)c1ccc(Cl)cc1 | 17 |
| COc1ccc2c(c1)c(Cc1nc(-c3ccc(Br)cc3)cs1)c(C)n2C(=O)c1ccc(Cl)cc1 | 27 |
| COc1ccc2c(c1)c(Cc1nc(-c3ccc(Cl)cc3)cs1)c(C)n2C(=O)c1ccc(Cl)cc1 | 16 |

(I) COc1ccc2c(c1)c(Cc1nc(-c3ccc(-c4ccccc4)cc3)cs1)c(C)n2C(=O)c1ccc(Cl)cc1
(II) COc1ccc2c(c1)c(Cc1nc(-c3ccc(F)cc3)cs1)c(C)n2C(=O)c1ccc(Cl)cc1
input: Returns: the argument ( I or II ) having the larger inhibition. Please respond with the label that marks your chosen entry.
output: II
(II: 28%, I: 13%)

* * *

Target: Prostaglandin G/H synthase 1 (Homo sapiens)
Experiment: Percent inhibition at 10 uM concentration against human recombinant Prostaglandin G/H synthase 1 cloned and expressed in baculovirus
experimental-endpoint: inhibition (%)

Here are 2 compounds together with their reported answers.
| compound-smiles | experimental-endpoint | result-number |
| --- | --- | --- |
| COc1ccc2c(c1)c(Cc1nc(-c3ccc(S(C)(=O)=O)cc3)cs1)c(C)n2C(=O)c1ccc(Cl)cc1 | inhibition | 15 |
| COc1ccc2c(c1)c(Cc1nc(-c3cccc([N+](=O)[O-])c3)cs1)c(C)n2C(=O)c1ccc(Cl)cc1 | inhibition | 35 |

(1) CCOC(=O)c1csc(Cc2c(C)n(C(=O)c3ccc(Cl)cc3)c3ccc(OC)cc23)n1
(2) Cc1c(Cc2nc(-c3ccc(Br)cc3)cs2)c2cc(F)ccc2n1C(=O)c1ccc(Br)cc1
(3) COc1ccc2c(c1)c(Cc1nc(-c3cccc(Br)c3)cs1)c(C)n2C(=O)c1ccc(Cl)cc1
input: // ascending sort on recorded inhibition When ranking, write the labels in the order the request describes.
output: 2, 1, 3

* * *

Biological target: Prostaglandin G/H synthase 2 (Homo sapiens)
Sequence (P35354 whole entry): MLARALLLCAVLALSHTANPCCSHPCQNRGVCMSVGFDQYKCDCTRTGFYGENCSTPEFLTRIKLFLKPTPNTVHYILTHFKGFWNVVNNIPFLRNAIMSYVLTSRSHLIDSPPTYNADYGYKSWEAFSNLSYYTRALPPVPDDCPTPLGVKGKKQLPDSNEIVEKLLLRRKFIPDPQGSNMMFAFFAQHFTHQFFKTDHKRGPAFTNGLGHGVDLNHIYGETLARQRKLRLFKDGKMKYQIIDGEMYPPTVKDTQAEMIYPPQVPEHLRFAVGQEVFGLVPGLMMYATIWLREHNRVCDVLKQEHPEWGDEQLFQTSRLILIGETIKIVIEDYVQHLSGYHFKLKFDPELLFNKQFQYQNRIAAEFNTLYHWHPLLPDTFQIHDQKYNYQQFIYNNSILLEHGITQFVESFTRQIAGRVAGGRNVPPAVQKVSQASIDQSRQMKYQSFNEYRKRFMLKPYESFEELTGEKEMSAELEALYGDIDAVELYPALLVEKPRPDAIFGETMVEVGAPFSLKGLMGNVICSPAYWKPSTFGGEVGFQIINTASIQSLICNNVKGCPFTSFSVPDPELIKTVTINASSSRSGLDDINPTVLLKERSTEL
experimental-endpoint: IC50 (µM)
Report the value in µM with no unit label.

The recorded IC50 for entry COc1ccc2c(c1)c(Cc1csc(N)n1)c(C)n2C(=O)c1ccc(Cl)cc1 equals 0.39

* * *

Target: Prostaglandin G/H synthase 1 (Homo sapiens, UniProt P23219)
Assay: Inhibitory concentration against human recombinant Prostaglandin G/H synthase 1 cloned and expressed in baculovirus (Sf9)
experimental-endpoint: IC50 (mM)
Numeric answer only, unit mM assumed.

Short answer for COc1ccc2c(c1)c(Cc1csc(N)n1)c(C)n2C(=O)c1ccc(Cl)cc1 : IC50 was 15.5

* * *

Biological target: Prostaglandin G/H synthase 2 (Homo sapiens) (UniProt P35354)
Sequence (P35354 whole entry): as the sequence (P35354 whole entry) above
Test: Percent inhibition at 100 nM concentration against human recombinant Prostaglandin G/H synthase 2 cloned and expressed in baculovirus (Sf9)
experimental-endpoint: inhibition (%)

Past entries and their recorded results:
| compound-smiles | target-under-test | result-number |
| --- | --- | --- |
| Cc1c(Cc2nc(-c3ccc(Br)cc3)cs2)c2cc(F)ccc2n1C(=O)c1ccc(Br)cc1 | Prostaglandin G/H synthase 2 (Homo sapiens) (UniProt P35354) | 25 |
| Cc1c(Cc2nc(-c3ccc(Cl)cc3)cs2)c2cc(Br)ccc2n1C(=O)c1ccc(Br)cc1 | Prostaglandin G/H synthase 2 (Homo sapiens) (UniProt P35354) | 9 |
| COc1ccc2c(c1)c(Cc1csc(-c3ccc(Cl)cc3)n1)c(C)n2C(=O)c1ccc(Cl)cc1 | Prostaglandin G/H synthase 2 (Homo sapiens) (UniProt P35354) | 16 |
| CCOC(=O)c1csc(Cc2c(C)n(C(=O)c3ccc(Cl)cc3)c3ccc(OC)cc23)n1 | Prostaglandin G/H synthase 2 (Homo sapiens) (UniProt P35354) | 40 |
| Cc1c(Cc2nc(-c3ccc([N+](=O)[O-])cc3)cs2)c2cc(Br)ccc2n1C(=O)c1ccc(Br)cc1 | Prostaglandin G/H synthase 2 (Homo sapiens) (UniProt P35354) | 7 |

(1) Cc1c(Cc2nc(-c3ccc(Br)cc3)cs2)c2cc(Br)ccc2n1C(=O)c1ccc(Br)cc1
(2) COc1ccc2c(c1)c(Cc1nc(C(=O)O)cs1)c(C)n2C(=O)c1ccc(Cl)cc1
input: For the pair 1 and 2 , which entry has the numerically smaller recorded inhibition? Your answer should be the label of the entry you select.
output: 2

(a) CCN(CC)c1ccc(-c2csc(Cc3c(C)n(C(=O)c4ccc(Cl)cc4)c4ccc(OC)cc34)n2)cc1
(b) COc1ccc2c(c1)c(Cc1nc(-c3ccc(-c4ccccc4)cc3)cs1)c(C)n2C(=O)c1ccc(Cl)cc1
input: Hello, I am sorting some records. Could you say if a or b has the smaller inhibition value? I would appreciate it if you answered with the label of your choice.
output: b
(b: 21%, a: 36%)

(a) COc1ccc2c(c1)c(Cc1csc(-c3cccnc3)n1)c(C)n2C(=O)c1ccc(Cl)cc1
(b) COc1ccc2c(c1)c(Cc1nc(-c3cccc([N+](=O)[O-])c3)cs1)c(C)n2C(=O)c1ccc(Cl)cc1
(c) COc1ccc2c(c1)c(Cc1nc(C(C)C)cs1)c(C)n2C(=O)c1ccc(Cl)cc1
(d) COc1ccc2c(c1)c(Cc1nc(-c3ccc(C(=O)O)cc3)cs1)c(C)n2C(=O)c1ccc(Br)cc1
(e) COc1ccc2c(c1)c(Cc1nc(C34C[C@H]5C[C@@H](C3)C[C@@H](C4)C5)cs1)c(C)n2C(=O)c1ccc(Cl)cc1
input: Put these in order: smallest inhibition first, largest last. Returns: the labels arranged in the requested order.
output: c, e, d, a, b

(A) COc1ccc2c(c1)c(Cc1csc(-c3ccccc3Cl)n1)c(C)n2C(=O)c1ccc(Cl)cc1
(B) COc1ccc2c(c1)c(Cc1nc(-c3ccc(F)cc3F)cs1)c(C)n2C(=O)c1ccc(Cl)cc1
input: Please state the entry with greater inhibition among A and B . Output the label that corresponds to your choice.
output: B

* * *

Target: Prostaglandin G/H synthase 1 (Homo sapiens)
Assay: Percent inhibition at 10 uM concentration against human recombinant Prostaglandin G/H synthase 1 cloned and expressed in baculovirus
experimental-endpoint: inhibition (%)

Solved cases (6 shown):
| compound-smiles | experimental-endpoint | unit-abbrev | result-number |
| --- | --- | --- | --- |
| COc1ccc2c(c1)c(Cc1nc(-c3ccc(Br)cc3)cs1)c(C)n2C(=O)c1ccc(Br)cc1 | inhibition | % | 3 |
| COc1ccc2c(c1)c(Cc1nc(-c3csc4ccccc34)cs1)c(C)n2C(=O)c1ccc(Cl)cc1 | inhibition | % | 20 |
| COc1ccc2c(c1)c(Cc1csc(NC(=O)c3ccncc3)n1)c(C)n2C(=O)c1ccc(Cl)cc1 | inhibition | % | 0 |
| COc1ccc2c(c1)c(Cc1nc(-c3ccc(C(=O)O)cc3)cs1)c(C)n2C(=O)c1ccc(Cl)cc1 | inhibition | % | 35 |
| CCN(CC)c1ccc(-c2csc(Cc3c(C)n(C(=O)c4ccc(Cl)cc4)c4ccc(OC)cc34)n2)cc1 | inhibition | % | 23 |
| COc1ccc2c(c1)c(Cc1csc(-c3ccc(Cl)cc3)n1)c(C)n2C(=O)c1ccc(Cl)cc1 | inhibition | % | 18 |

(P) Cc1c(Cc2nc(-c3ccc(Br)cc3)cs2)c2cc(Br)ccc2n1C(=O)c1ccc(Br)cc1
(Q) COc1ccc2c(c1)c(Cc1nc(-c3ccc(C(=O)O)cc3)cs1)c(C)n2C(=O)c1ccc(Br)cc1
input: Between P and Q , which one has the lower reported inhibition value? Your choice should be expressed through its label.
output: P
(P: 13%, Q: 40%)

(P) COc1ccc2c(c1)c(Cc1csc(NC(=O)CN)n1)c(C)n2C(=O)c1ccc(Cl)cc1
(Q) COc1ccc2c(c1)c(Cc1nc(-c3ccc([N+](=O)[O-])cc3)cs1)c(C)n2C(=O)c1ccc(Br)cc1
(R) COc1ccc2c(c1)c(Cc1csc(-c3ccncc3)n1)c(C)n2C(=O)c1ccc(Cl)cc1
input: I would appreciate it if you could sort these 3 compounds by inhibition, starting from the smallest number. List the labels, following the order given in the request.
output: Q, P, R

* * *

Target: Prostaglandin G/H synthase 2 (Homo sapiens) (UniProt P35354)
Experiment: Percent inhibition at 100 nM concentration against human recombinant Prostaglandin G/H synthase 2 cloned and expressed in baculovirus (Sf9)
experimental-endpoint: inhibition (%)

Worked cases, answers included:
| compound-smiles | unit-abbrev | inhibition |
| --- | --- | --- |
| COc1ccc2c(c1)c(Cc1csc(-c3ccncc3)n1)c(C)n2C(=O)c1ccc(Cl)cc1 | % | 75 |
| COc1ccc2c(c1)c(Cc1csc(NC(=O)c3ccncc3)n1)c(C)n2C(=O)c1ccc(Cl)cc1 | % | 45 |
| Cc1c(Cc2nc(-c3ccc([N+](=O)[O-])cc3)cs2)c2cc(F)ccc2n1C(=O)c1ccc(Br)cc1 | % | 40 |

(P) Cc1c(Cc2nc(-c3ccc(Cl)cc3)cs2)c2cc(F)ccc2n1C(=O)c1ccc(Br)cc1
(Q) COc1ccc2c(c1)c(Cc1csc(NC(=O)CN)n1)c(C)n2C(=O)c1ccc(Cl)cc1
input: Between P and Q , which one has the lower reported inhibition value? Field: selected label. Fill in the label of the entry you choose.
output: Q
